Molecular target: GluN1b wt/ GluN2B Q110A (Rattus norvegicus, UniProt P35439+Q00960, Q110A)
Sequence (Q00960 27-1482 Q110A, other chains not shown): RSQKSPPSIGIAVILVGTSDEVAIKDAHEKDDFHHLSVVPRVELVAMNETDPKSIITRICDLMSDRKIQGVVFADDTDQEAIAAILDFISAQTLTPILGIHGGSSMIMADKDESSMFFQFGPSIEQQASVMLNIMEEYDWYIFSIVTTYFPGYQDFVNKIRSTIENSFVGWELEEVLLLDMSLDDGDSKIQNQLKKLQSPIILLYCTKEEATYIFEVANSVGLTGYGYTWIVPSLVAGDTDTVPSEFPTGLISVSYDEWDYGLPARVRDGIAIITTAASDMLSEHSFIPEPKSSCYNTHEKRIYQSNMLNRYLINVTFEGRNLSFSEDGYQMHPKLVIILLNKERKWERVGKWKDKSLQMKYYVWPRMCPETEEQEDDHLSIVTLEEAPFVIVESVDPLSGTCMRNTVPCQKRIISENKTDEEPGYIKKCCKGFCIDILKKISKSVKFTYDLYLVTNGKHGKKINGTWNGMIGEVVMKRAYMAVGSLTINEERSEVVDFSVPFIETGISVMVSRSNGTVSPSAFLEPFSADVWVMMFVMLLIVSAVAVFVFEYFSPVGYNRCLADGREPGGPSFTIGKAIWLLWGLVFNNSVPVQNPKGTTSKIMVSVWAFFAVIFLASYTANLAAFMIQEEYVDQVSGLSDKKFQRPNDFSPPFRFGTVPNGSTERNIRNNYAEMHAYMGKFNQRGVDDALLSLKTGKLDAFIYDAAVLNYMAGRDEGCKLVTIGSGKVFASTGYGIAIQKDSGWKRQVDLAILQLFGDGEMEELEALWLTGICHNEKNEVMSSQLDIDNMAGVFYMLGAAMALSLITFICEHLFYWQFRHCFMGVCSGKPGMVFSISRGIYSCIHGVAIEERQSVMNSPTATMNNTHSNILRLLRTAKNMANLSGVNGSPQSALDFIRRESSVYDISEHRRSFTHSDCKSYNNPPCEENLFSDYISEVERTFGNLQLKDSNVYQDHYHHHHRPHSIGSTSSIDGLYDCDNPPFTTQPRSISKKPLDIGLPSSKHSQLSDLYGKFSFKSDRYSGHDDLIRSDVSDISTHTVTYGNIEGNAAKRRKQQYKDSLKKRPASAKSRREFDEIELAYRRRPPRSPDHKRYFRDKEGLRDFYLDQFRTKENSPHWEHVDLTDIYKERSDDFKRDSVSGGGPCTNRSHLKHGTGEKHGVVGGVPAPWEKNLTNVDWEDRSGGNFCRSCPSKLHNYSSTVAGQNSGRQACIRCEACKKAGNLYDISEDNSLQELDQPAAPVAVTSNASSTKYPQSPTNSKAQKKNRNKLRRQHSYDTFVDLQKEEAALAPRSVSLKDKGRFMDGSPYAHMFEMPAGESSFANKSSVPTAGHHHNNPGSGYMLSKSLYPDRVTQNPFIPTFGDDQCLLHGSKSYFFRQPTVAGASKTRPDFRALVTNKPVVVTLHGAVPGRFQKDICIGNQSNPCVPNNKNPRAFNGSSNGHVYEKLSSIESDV
Experiment: TEVC recording in X. laevis oocytes, GluN2B mutant screening
Conditions: agonists 10 µM glycine + 10 µM (S)-glutamate; fitted curve
MEASURED METRIC: pIC50
Hey, just a heads up that pIC50 is the negative log base 10 of the concentration in molar.

What measured pIC50 goes with Oc1ccc2c(c1)CCN(CCCCc1ccccc1F)C[C@@H]2O [(R)-OF-NB1] ?
6.29

====

Biological target: GluN1a wt/ GluN2B wt (Rattus norvegicus, UniProt P35439+Q00960)
Sequence (Q00960 27-1482, other chains not shown): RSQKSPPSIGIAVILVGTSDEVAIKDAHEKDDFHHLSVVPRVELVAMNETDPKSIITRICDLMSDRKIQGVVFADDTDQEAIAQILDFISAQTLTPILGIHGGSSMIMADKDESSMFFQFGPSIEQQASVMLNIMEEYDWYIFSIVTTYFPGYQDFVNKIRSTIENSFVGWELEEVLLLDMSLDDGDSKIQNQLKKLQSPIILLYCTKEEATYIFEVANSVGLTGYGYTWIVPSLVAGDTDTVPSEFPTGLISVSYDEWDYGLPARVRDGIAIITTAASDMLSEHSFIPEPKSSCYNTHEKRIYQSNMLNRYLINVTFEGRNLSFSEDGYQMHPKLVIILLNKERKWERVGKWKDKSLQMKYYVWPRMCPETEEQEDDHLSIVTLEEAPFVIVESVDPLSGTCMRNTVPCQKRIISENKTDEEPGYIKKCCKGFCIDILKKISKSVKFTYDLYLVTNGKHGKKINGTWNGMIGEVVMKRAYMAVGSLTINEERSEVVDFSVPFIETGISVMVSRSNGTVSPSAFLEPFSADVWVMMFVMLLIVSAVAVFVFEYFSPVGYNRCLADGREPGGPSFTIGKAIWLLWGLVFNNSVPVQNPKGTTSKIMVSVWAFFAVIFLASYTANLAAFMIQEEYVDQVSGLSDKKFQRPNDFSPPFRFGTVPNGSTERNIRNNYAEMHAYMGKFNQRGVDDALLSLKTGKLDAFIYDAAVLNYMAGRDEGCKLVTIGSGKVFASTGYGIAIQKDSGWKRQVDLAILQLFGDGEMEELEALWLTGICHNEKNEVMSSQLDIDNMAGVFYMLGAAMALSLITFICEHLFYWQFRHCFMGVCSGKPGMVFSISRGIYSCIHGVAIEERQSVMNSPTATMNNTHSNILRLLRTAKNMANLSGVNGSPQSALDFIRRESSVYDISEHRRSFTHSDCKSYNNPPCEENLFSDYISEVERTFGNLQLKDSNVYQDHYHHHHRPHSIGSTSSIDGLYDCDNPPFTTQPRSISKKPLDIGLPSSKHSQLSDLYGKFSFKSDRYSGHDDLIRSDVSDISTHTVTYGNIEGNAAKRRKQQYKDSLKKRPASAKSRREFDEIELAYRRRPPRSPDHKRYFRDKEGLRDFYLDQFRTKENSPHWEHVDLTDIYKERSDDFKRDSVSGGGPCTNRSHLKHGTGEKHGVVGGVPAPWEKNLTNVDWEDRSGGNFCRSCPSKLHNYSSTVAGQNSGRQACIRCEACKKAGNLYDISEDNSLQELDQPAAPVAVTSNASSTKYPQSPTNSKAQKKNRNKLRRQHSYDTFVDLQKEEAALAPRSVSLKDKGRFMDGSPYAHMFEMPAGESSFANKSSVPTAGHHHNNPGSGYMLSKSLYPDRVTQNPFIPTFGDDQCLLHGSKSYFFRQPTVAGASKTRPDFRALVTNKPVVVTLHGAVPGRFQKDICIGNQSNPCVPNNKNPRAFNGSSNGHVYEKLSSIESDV
Assay: TEVC recording of NMDAR currents in X. laevis oocytes, inhibition by compound
Assay type: cell-based
Conditions: oocytes, 10 µM glycine + 10 µM (S)-glutamate, -70 mV; fitted curve
MEASURED METRIC: pIC50
Hey, just a heads up that pIC50 is the negative log base 10 of the concentration in molar.

What measured pIC50 goes with Oc1ccc2c(c1)CCN(CCCCc1ccccc1F)C[C@@H]2O [(R)-OF-NB1] ?
7.01

====

Biological target: GluN1b wt/ GluN2B wt (Rattus norvegicus, UniProt P35439+Q00960)
Sequence (Q00960 27-1482, other chains not shown): as the sequence (Q00960 27-1482, other chains not shown) above
Assay: TEVC recording in X. laevis oocytes in the presence of agonists and 200 µM spermine
Format: cell-based
Conditions: agonists + 200 µM spermine; fitted curve
Description: The NMDAR was expressed in stage V and VI oocytes originated from X. laevis. Oocytes were provided by Ecocyte Bioscience (Dortmund, Germany), and equimolar amounts of wild-type and mutated GluN1 and GluN2B cRNA were injected (0.8 ng each). […] Subsequently, the activity of the expressed NMDARs in the oocytes was recorded by two-electrode voltage clamp (TEVC). […]
MEASURED METRIC: IC50

What measured IC50 goes with Oc1ccc2c(c1)CCN(CCCCc1ccccc1F)C[C@@H]2O [(R)-OF-NB1] ?
0.522 µM
